So I've got a bunch of compounds here, and I need their GI50 values.
Tested on: CAKI-1
run-description: NCI tumour cell line growth inhibition, 48 h
Calls of active or inactive are those of the source. Rule as the data show it: active = GI50 up to about 1.1 µM and inactive = higher. Starred links: 1 amine or outer side, 2 acyl side, 3 side chain; linkers in the order of their positions; H or OH if unused. Non-standard residues stand in square brackets, D forms with d. Residues, ends and D or L forms follow the SMILES beside them. X41 = CSCCCC(N[*:1])C(=O)[*:2]

# input Look up and report GI50, with CAKI-1 as system, for CCOC(=O)n1cncc1CC(NC(=O)Cc1c(C(=O)C=C(C)C)[nH]c2ccccc12)C(=O)OC (stereo unspecified)
# output 17.9 µM (inactive)

# input # return GI50 of CC(C)=CCNc1nc(Cl)nc2[nH]cnc12 (system: CAKI-1)
# output > 100 µM (inactive)

# input Give GI50; test system CAKI-1; compound CC(Cc1ccccc1)NC1=NCCO1 (stereo unspecified)
# output > 100 µM (inactive)

# input Report GI50 under test system CAKI-1 for C#CCOC(=O)c1ccccc1O .
# output > 100 µM (inactive)

Your task in this section: give GI50 for each listed record.
1. O=C(O)c1cccc2cccc(-c3cccc4cccc(C(=O)O)c34)c12
2. c1ccc2c(c1)c1c(c3ccccc32)CN2CCCC2C1 (stereo unspecified)
3. O=C(CP(=O)(O)O)c1cccs1
4. O=c1oc2c(O)c(O)c(O)c3c(=O)oc4c(O)c(O)cc1c4c23
5. CC(=O)OCC(OC(C)=O)C(OC(C)=O)C(OC(C)=O)C(=O)CNn1c(-c2ccccc2)nc2ccc(Br)cc2c1=O (stereo unspecified)
6. COc1ccc(C2=C(Cl)c3cc(OC)c(OC)cc3C2Cl)cc1OC (stereo unspecified)
7. CC(C)=CCC[C@@H](C)C1=C(O)C(=O)C(C)=C(Nc2ccccc2I)C1=O
8. CCCCNC(=S)c1ccc(OC(=O)Nc2ccc(Cl)cc2)cc1

# output
1. > 100 µM (inactive)
2. 4.07 µM (inactive)
3. > 100 µM (inactive)
4. > 100 µM (inactive)
5. 87.5 µM (inactive)
6. 14.7 µM (inactive)
7. 12.9 µM (inactive)
8. 18.5 µM (inactive)

Record GI50 for all entries; do not skip any.
1. Nc1c(-c2ccccc2-c2c(N)[n+]([O-])c3ccccc3[n+]2[O-])[n+]([O-])c2ccccc2[n+]1[O-]
2. CSCCCC(NC(=O)CNC(=O)C1CCCN1C(=O)C(Cc1ccc(O)cc1)NC(=O)C(Cc1ccccc1)NC(=O)C(CCCNC(=N)N)NC(=O)C(CC(=O)O)NC(=O)C1CCCN1C(=O)C(CC(=O)O)NC(=O)C1CCCN1C(=O)C1CCCN1C(=O)CN)C(N)=O (stereo unspecified) (H-GPPDPDRFYPG[X41]-NH2; configuration not given here)
3. O=C1NC(=O)C(c2c[nH]c3cc(Br)ccc23)=C1c1cnc[nH]1
4. OCC(S)CS.[Bi] (stereo unspecified)
5. Cc1cc(C)nc(NC(=O)c2ccc(Br)s2)c1
6. CC1(C)CC23CC(C)(C)c4cccc(c42)OCc2ccc4ccc5ccc(nc5c4n2)COc2cccc1c23
7. Cc1ccc(C(=O)/C=C/c2ccccc2Cl)cc1
8. Cc1ccc(-c2c(-c3ccccc3)[nH]c(C)c2C(=O)ONC(=O)c2ccccc2)cc1

# output
1: 33.5 µM (inactive); 2: > 50 µM (inactive); 3: 13.2 µM (inactive); 4: 11.8 µM (inactive); 5: > 100 µM (inactive); 6: > 50 µM (inactive); 7: 16.8 µM (inactive); 8: 2.19 µM (inactive)

Count: 6. Required value per item: GI50.
1. O=C1CCCC1C(O)(C(F)(F)Cl)C(F)(F)Cl (stereo unspecified)
2. CCc1ccc2nc(-c3ccc(O)cc3)sc2c1
3. CC12c3c4ccc(C=O)c3Oc3ccc(C=O)c(c31)Oc1ccc(C=O)c(c12)O4
4. COc1ccc2[nH]c3c(c2c1)CC(=O)N1CCCC(CC3O)C1 (stereo unspecified)
5. CN1C(=O)N(C)C2(CCN(CC(CC3OCCO3)c3ccc(F)cc3)CC2)C1=O (stereo unspecified)
6. COc1ccc(C2=NOP(c3ccccc3)(c3ccccc3)(c3ccccc3)C2)cc1

# output
> 10 µM (inactive)
12.4 µM (inactive)
> 25 µM (inactive)
> 100 µM (inactive)
> 100 µM (inactive)
25.1 µM (inactive)
